TESTED ON: T1, HLA-B*07:02 (human)
T1 construct: Peptide-receptive monomer in the UV-ligand exchange assay
ASSAY PROCEDURE: UV peptide exchange, anti-b2m ELISA; exchange yield grade
Record form. Attribute: peptide exchange yield. Fill in for each entry.

For orientation, consider the following solved cases.
- BINDER: "MPKLFLTAC"
  REPORTED VALUE: "≥ 75%"
- BINDER: "TPSHSTPSF"
  REPORTED VALUE: "50 to 75%"
- BINDER: "SPSSPLLLLA"
  REPORTED VALUE: "50 to 75%"

Attention now turns to another entry.
# input Find the recorded peptide exchange yield belonging to SPAPSLARFLSL and report it.
# output ≥ 75%
